TARGET OR SYSTEM: FePYL1 with AtHAB1 (Festuca elata)
Construct: H6-SUMO-FePYL1 and biotin-MBP-AtHAB1 (172-511), E. coli; tags kept; with Protein phosphatase 2C 16 (HAB1, Arabidopsis thaliana)
Sequence (A0A2D1UXN6 1-204): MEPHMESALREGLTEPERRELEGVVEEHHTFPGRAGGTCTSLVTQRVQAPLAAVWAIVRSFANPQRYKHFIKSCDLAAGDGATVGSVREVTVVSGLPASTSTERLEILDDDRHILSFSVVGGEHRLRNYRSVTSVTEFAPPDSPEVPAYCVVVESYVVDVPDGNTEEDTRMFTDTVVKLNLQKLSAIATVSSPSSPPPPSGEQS
Sequence (Q9CAJ0 172-511 partner): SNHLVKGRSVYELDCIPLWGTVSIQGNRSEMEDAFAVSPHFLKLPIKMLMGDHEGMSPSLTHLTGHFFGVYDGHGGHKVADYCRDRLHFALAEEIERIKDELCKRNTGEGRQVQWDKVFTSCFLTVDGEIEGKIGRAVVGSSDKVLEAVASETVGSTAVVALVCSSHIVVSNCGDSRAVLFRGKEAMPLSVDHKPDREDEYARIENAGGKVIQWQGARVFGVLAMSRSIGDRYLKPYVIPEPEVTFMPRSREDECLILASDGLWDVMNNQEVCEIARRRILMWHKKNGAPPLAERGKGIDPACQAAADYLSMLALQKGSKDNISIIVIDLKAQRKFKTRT
TEST DESCRIPTION: AlphaScreen, ABA-dependent receptor-PP2C interaction
PROPERTY: EC50 (nM)

- CC1=CC(=O)CC(C)(C)C1(O)/C=C/C(C)=C\C(=O)O (stereo in doubt) [(+)-ABA]: 671
